# method_summary: Human HepG2 cell viability assay in 384 well format
# Format: toxicity, cell-based
# Parameters: dose 125 nL, time 70.5 hour; concentration not given beside the values
# protocol_conditions: HepG2 cells, read-out: Inhibition
Kind request: treat -10% as inclusive, so cytotoxicity at 70.5 h at -10% or higher is 1, anything lower is 0.

Examples from the recorded data:
CN(C)c1cc(C2CCN(C(=O)c3cnn(C)c3)CC2)ccn1; 1
Cc1cccc(CN2C[C@@H]3COC[C@]3(COc3ccc(C#N)cn3)C2)n1; 1
CCc1nccn1C1CCCN(C(=O)c2csc(C3CC3)n2)C1 (stereo unspecified); 0
CC(=O)NCC(=O)N1Cc2nccn2CC(CN2CCCC2=O)C1 (stereo unspecified); 1
CN(C)CC(C)(C)Cn1cnc(-c2ccccc2)c1-c1cccc(O)c1; 0

--- query ---
**Q:** In plain terms: is recorded cytotoxicity at 70.5 h at least -10% for CCNc1ncc(C(=O)NCc2csc(-c3cnccn3)n2)cn1 ?
**A:** 0
